- target.system: recombinant human MAPKAP-K2 (Homo sapiens)
- Sequence (P49137 whole entry): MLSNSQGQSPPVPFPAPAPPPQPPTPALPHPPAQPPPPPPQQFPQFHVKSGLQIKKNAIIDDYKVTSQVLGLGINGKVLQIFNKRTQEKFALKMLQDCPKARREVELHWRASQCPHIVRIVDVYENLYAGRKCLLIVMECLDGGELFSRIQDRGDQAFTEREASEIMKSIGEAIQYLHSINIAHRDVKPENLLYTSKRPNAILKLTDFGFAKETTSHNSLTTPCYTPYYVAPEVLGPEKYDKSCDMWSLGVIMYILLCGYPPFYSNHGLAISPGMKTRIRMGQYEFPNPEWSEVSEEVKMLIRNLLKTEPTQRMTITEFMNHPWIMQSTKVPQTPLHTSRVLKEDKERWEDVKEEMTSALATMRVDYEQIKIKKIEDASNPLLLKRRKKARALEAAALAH
- test: Inhibition of MAPKAP-K2 enzyme activity (33P-ATP peptide substrate phosphorylation)
- measurement.conditions: recombinant human MAPKAP-K2 10 mU, room temperature 30 min, peptide substrate Lys-Lys-Leu-Asn-Arg-Thr-Leu-Ser-Val-Ala; read-out: Activity strength (IC50 against MAPKAP-K2)
assay.readout: IC50

> print(dat)
                                   compound  reported.value
1  CCOc1ccc(Nc2c3c(nc4ccnn24)N(Cc2cccnc2)CCC3)cc1    50 to 100 µM
2  CCOc1ccc(Nc2c3c(nc4c(F)cnn24)N([C@H]2CCCNC2)CC3)cc1         < 10 µM
3  CCOc1ccc(Nc2c3c(nc4ccnn24)N([C@H]2CC[C@H](N)CC2)CCC3)cc1         < 10 µM
4  CCOc1ccc(Nc2c3c(nc4ccnn24)N([C@H]2CCCNC2)CCCC3)cc1         < 10 µM
5  CCOc1ccc(Nc2c3c(nc4ccnn24)N(CCCN)CC3)cc1         < 10 µM
6  FC(F)(F)c1nc2cc(Nc3c4c(nc5ccnn35)N([C@H]3CCCNC3)CC4)ccc2[nH]1         < 10 µM
7  CCOc1ccc(Nc2c3c(nc4ccnn24)N(C2CCNC2)CCC3)cc1 (stereo not drawn)         < 10 µM
8  c1cc2nc3c(c(Nc4ccc5sccc5c4)n2n1)CCN3[C@H]1CCCNC1         < 10 µM
9  CCOc1ccc(Nc2c3c(nc4ccnn24)N(CCCN)CCC3)cc1     10 to 50 µM
